IC50 listing for selected compounds.
target-entity: human recombinant LPA2 expressed in CHO cells (Homo sapiens, UniProt Q9HBW0)
Construct: expressed in transfected cells; host or cells: CHO cells (CHO-hLPA2 cell line)
Sequence (Q9HBW0 whole entry): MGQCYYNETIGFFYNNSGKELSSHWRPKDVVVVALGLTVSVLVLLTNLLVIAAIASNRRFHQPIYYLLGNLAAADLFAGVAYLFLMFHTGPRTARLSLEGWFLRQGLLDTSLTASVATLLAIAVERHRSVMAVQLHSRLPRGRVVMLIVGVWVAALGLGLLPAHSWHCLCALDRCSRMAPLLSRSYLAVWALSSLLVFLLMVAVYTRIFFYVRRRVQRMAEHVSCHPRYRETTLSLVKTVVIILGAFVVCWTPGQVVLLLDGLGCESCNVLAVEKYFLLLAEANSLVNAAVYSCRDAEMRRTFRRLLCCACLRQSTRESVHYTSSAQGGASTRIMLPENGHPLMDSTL
method-notes: FLIPR calcium mobilization assay, LPA2 antagonism in CHO-hLPA2 cells
Format: cell-based
measurement-context: CHO-hLPA2 cells, inhibition of LPA EC80 Ca2+ response, 30 min pre-incubation; read-out: LPA2 IC50

{"compound": "C[C@@H](CN1CCN(S(=O)(=O)c2cccnc2)CC1)Nc1ncnc2c(-c3cn(C)nc3C(F)(F)F)cccc12 [Example 104]", "IC50": "10 to 100 nM"}
{"compound": "COC(=O)Nc1nc(C)c(S(=O)(=O)N2CCN(C[C@H](C)Nc3ncnc4c(-c5cncc(NC=O)c5)cccc34)CC2)s1 [Example 72]", "IC50": "< 10 nM"}
{"compound": "COC(=O)Nc1nc(C)c(S(=O)(=O)N2CCN(C[C@H](C)Nc3ncnc4c(-c5ccc(N)nc5)cccc34)CC2)s1 [Example 56]", "IC50": "10 to 100 nM"}
{"compound": "COC(=O)Nc1nc(C)c(S(=O)(=O)N2CCN(C[C@H](C)Nc3ncnc4c(-c5cn(C)nc5C)cccc34)CC2)s1 [Example 63]", "IC50": "< 10 nM"}
{"compound": "COC(=O)Nc1nc(C)c(S(=O)(=O)N2CCN(C[C@H](C)Nc3ncnc4c(-c5cnn(CCN(C)C)c5)cccc34)CC2)s1 [Example 58]", "IC50": "< 10 nM"}
{"compound": "C[C@@H](CN1CCN(S(=O)(=O)c2ccc3[nH]c(=O)sc3c2)CC1)Nc1ncnc2c(-c3cccnc3)cccc12 [Example 38]", "IC50": "< 10 nM"}
{"compound": "C[C@@H](CN1CCN(S(=O)(=O)c2ccc3[nH]c(=O)[nH]c(=O)c3c2)CC1)Nc1ncnc2c(-c3cccnc3)cccc12 [Example 51]", "IC50": "< 10 nM"}
{"compound": "COC(=O)Nc1nc(C)c(S(=O)(=O)N2CCN(C[C@H](C)Nc3ncnc4c(-c5cnc(C)nc5)cccc34)CC2)s1 [Example 34]", "IC50": "10 to 100 nM"}
{"compound": "COC(=O)Nc1nc(C)c(S(=O)(=O)N2CCN(C[C@H](C)Nc3ncnc4c(-c5cncc(N6CCN(C)CC6)c5)cccc34)CC2)s1 [Example 67]", "IC50": "< 10 nM"}
{"compound": "Cc1cc(-c2ccc(S(=O)(=O)N3CCN(C[C@H](C)Nc4ncnc5c(-c6cncnc6)cccc45)CC3)s2)on1 [Example 11]", "IC50": "< 10 nM"}
{"compound": "COC(=O)Nc1nc(C)c(S(=O)(=O)N2CCN(C[C@H](C)Nc3ncnc4c(-c5cnn(C)c5C)cccc34)CC2)s1 [Example 64]", "IC50": "< 10 nM"}
{"compound": "Cc1ccc(-c2cccc3c(N[C@@H](C)CN4CCN(S(=O)(=O)c5ccc(-c6cc(C)no6)s5)CC4)ncnc23)cn1 [Example 85]", "IC50": "< 10 nM"}
{"compound": "Cc1cc(-c2ccc(S(=O)(=O)N3CCN(C[C@H](C)Nc4ncnc5c(-c6ccccn6)cccc45)CC3)s2)on1 [Example 12]", "IC50": "< 10 nM"}
{"compound": "CC(=O)N1CCc2cc(S(=O)(=O)N3CCN(C[C@H](C)Nc4ncnc5c(-c6cccc(CN(C)C)c6)cccc45)CC3)ccc21 [Example 54]", "IC50": "< 10 nM"}
{"compound": "Cc1nc2ccc(S(=O)(=O)N3CCN(C[C@H](C)Nc4ncnc5c(-c6cccc(CN(C)C)c6)cccc45)CC3)cc2s1 [Example 84]", "IC50": "< 10 nM"}
{"compound": "COC(=O)Nc1nc(C)c(S(=O)(=O)N2CCN(C[C@H](C)Nc3ncnc4c(-c5c(C)nn(CCN(C)C)c5C)cccc34)CC2)s1 [Example 101]", "IC50": "< 10 nM"}
{"compound": "CC(=O)Nc1cc(F)c(S(=O)(=O)N2CCN(C[C@H](C)Nc3ncnc4c(-c5cccc(CN(C)C)c5)cccc34)CC2)cc1C [Example 53]", "IC50": "< 10 nM"}
{"compound": "Cc1cc(-c2ccc(S(=O)(=O)N3CCN(C[C@H](C)Nc4ncnc5c(-c6cccnc6)cccc45)CC3)s2)on1 [Example 6]", "IC50": "< 10 nM"}
{"compound": "C[C@@H](CN1CCN(S(=O)(=O)c2ccccc2)CC1)Nc1ncnc2c(-c3cn(C)nc3C(F)(F)F)cccc12 [Example 88]", "IC50": "10 to 100 nM"}
{"compound": "Cc1cc(-c2ccc(S(=O)(=O)N3CCN(C[C@H](C)Nc4ncnc5c(-c6cn(C)nc6C6CC6)cccc45)CC3)s2)on1 [Example 18]", "IC50": "< 10 nM"}
{"compound": "C[C@@H](CN1CCN(S(=O)(=O)c2ccc3c(c2)sc(=O)n3C)CC1)Nc1ncnc2c(-c3cccnc3)cccc12 [Example 94]", "IC50": "10 to 100 nM"}
